Entry source: paper PMC9186491

molecular target: JAK1 JH2 pseudokinase domain (Homo sapiens, UniProt P23458); assay: KdELECT competition binding assay, JAK1 JH2; settings: read-out: JAK Binding Selectivity (Kd) Pseudokinase Domain (JH2) JAK1
Sequence (P23458 583-855 limits assumed): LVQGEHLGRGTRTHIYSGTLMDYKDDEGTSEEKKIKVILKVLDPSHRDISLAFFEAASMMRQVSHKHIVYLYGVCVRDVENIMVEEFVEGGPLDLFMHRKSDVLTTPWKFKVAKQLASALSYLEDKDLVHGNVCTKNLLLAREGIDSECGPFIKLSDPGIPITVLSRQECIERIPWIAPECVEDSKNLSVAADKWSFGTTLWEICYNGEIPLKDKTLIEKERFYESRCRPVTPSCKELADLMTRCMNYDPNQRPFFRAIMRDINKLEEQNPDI
Some compounds, each annotated with its measured Kd.
Just the number in nM, nothing appended.

Here is how some compounds turned out for Kd.
>>> assay_value("[2H]C([2H])([2H])NC(=O)c1nnc(NC(=O)N2CCC2)cc1Nc1cccc(-c2ncn(C)n2)c1OC")
1.8
>>> assay_value("CNC(=O)c1nnc(NC(=O)N2CCC2)cc1Nc1cccc(-c2ncn(C)n2)c1OC")
3.7

Here is the next item to consider.
Look up and state reported Kd for CNC(=O)c1nnc(NC(=O)C2CC2)c2[nH]c(-c3ccc(N)cc3OC)cc12
0.52

====

target: TYK2 JH2 pseudokinase domain (Homo sapiens); assay: KdELECT competition binding assay, TYK2 JH2; conditions: isolated TYK2 JH2 domain
Sequence (P29597 589-875 limits assumed): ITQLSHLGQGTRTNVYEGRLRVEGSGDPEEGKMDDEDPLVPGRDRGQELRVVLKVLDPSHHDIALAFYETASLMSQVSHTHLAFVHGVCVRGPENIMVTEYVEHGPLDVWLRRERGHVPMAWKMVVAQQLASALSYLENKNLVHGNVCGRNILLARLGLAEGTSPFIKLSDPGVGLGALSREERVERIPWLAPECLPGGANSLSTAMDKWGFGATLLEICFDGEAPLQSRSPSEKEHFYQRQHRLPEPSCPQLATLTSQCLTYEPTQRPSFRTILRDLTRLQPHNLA
Measured attribute: Kd (pM)
Just the number in pM, nothing appended.

Here is how some compounds turned out for Kd.
>>> assay_value("CNC(=O)c1cnc(Nc2ccc(N3CCC3)cn2)cc1Nc1ccccc1S(C)(=O)=O [SHR1274]")
53
>>> assay_value("CNC(=O)c1nnc(NC(=O)C2CC2)c2[nH]c(-c3ccccc3OC)cc12 [SHR2178]")
340
>>> assay_value("CNC(=O)c1nnc(NC(=O)N2CCC2)cc1Nc1cccc(-c2ncn(C)n2)c1OC [SHR8751]")
32

Here is the next item to consider.
Look up and state reported Kd for [2H]C([2H])([2H])NC(=O)c1nnc(NC(=O)N2CCC2)cc1Nc1cccc(-c2ncn(C)n2)c1OC [SHR9332]
40

====

target: CYP450 3A4 (Homo sapiens, UniProt P08684); assay: CYP450 inhibition, 3A4; format: in vitro ADME; settings: 3A4(m); read-out: CYP450 3A4(m)
Sequence (P08684 whole entry): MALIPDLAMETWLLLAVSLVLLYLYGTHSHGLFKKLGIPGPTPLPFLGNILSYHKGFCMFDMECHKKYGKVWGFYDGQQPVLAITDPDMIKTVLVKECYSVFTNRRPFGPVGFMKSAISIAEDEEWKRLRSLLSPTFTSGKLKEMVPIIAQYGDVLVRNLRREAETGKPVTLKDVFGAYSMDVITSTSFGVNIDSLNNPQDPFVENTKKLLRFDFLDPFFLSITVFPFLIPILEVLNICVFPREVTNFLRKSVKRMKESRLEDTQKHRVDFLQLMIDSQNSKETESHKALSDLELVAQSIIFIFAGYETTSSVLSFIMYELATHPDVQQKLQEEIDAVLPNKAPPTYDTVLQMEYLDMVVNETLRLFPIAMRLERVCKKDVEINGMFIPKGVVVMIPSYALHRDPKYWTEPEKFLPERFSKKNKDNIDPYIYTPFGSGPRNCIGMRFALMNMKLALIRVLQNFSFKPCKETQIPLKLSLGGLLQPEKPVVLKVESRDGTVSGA
Some compounds, each annotated with its measured IC50.

Here is how some compounds turned out for IC50.
>>> assay_value("CNC(=O)c1nnc(NC(=O)C2CC2)c2[nH]c(-c3ccccc3OC)cc12 [SHR2178]")
"30 µM"
>>> assay_value("[2H]C([2H])([2H])NC(=O)c1nnc(NC(=O)N2CCC2)cc1Nc1cccc(-c2ncn(C)n2)c1OC [SHR9332]")
"> 30 µM"
>>> assay_value("CNC(=O)c1nnc(NC(=O)C2CC2)c2[nH]c(-c3ccc(N)cc3OC)cc12 [SHR2396]")
"> 30 µM"

Here is the next item to consider.
Report measured IC50 on CYP450 3A4 (Homo sapiens, UniProt P08684); entry: CNC(=O)c1nnc(NC(=O)N2CCC2)cc1Nc1cccc(-c2ncn(C)n2)c1OC [SHR8751]
> 30 µM

====

System: IL12-induced-IFNg production in Rat PBMCs
Assay: IL12-induced IFNγ production in rat PBMCs
Type: cell-based
Details: PBMC
Method: generated by non-linear regression analysis to determine the IC50 values of compounds using […] (Monkey, Canine, Rat and Mouse) […] JH2 ligands, SHR2915, 0936, 1039 and 1213, in mouse splenocytes (B), Canine PBMCs (C), Rat PBMCs (D) and Macaque PBMCs (E). Inhibition data were calculated by comparison to vehicle […] response curves were then generated to determine the IC50 values as derived by non-linear regression analysis using GraphPad Prism. […]
Measured attribute: IC50 (nM)
Just the number in nM, nothing appended.

Look up and state reported IC50 for CNC(=O)c1nnc(Nc2ccc(N3CCC3)cn2)cc1Nc1cccc(-c2ncn(C)n2)c1OC
3

====

Test system: JAK2-dependent EPO-induced phosphorylation of STAT5 (Tyr694/699) in TF1 cells
Test: JAK cellular selectivity assay, EPO-pSTAT5 (JAK2)
Type: cell-based, human
Details: Homo sapiens, TF-1, read-out: JAK Cellular Selectivity (IC50) EPO-pSTAT5 (JAK2)
Method: The cells were then ready for the assay after incubating for 2 hours in a humidified, 5% CO2 cell culture incubator at 37°C. […] The curve fit was generated, and statistical analysis was performed using GraphPad Prism. IC50 values were derived by non-linear regression analysis and defined as the compound concentration at which the response level was reduced to half of its maximum relative to a DMSO control.
pIC50: −log10 of the molar value.
Measured attribute: pIC50

Look up and state reported pIC50 for CNC(=O)c1nnc(Nc2ccc(N3CCC3)cn2)cc1Nc1cccc(-c2ncn(C)n2)c1OC [SHR2915]
< 5.00

====

test system: IFNα-induced CXCL10 production in human whole blood; assay: IFNα-induced CXCL10 production in human whole blood; type: cell-based; details: Homo sapiens; read-out: IFNa-induced-CXCL10 Production in Human Whole Blood IC50, Donor 3
Measured attribute: IC50 (nM)
Just the number in nM, nothing appended.

Report measured IC50 on IFNα-induced CXCL10 production in human whole blood; entry: O=C(Nc1nc2cccc(-c3ccc(CN4CCS(=O)(=O)CC4)cc3)n2n1)C1CC1
630

====

Some compounds, each annotated with its measured fraction unbound.
test: PPB, M; type: in vitro ADME; conditions: mouse, plasma

Here is how some compounds turned out for fraction unbound.
>>> assay_value("CNC(=O)c1nnc(NC(=O)N2CCC2)cc1Nc1cccc(-c2ncn(C)n2)c1OC")
0.35
>>> assay_value("[2H]C([2H])([2H])NC(=O)c1nnc(NC(=O)N2CCC2)cc1Nc1cccc(-c2ncn(C)n2)c1OC")
0.249

Here is the next item to consider.
Look up and state reported fraction unbound for CNC(=O)c1nnc(NC(=O)C2CC2)c2[nH]c(-c3ccc(N)cc3OC)cc12
0.0292

====

Some compounds, each annotated with its measured Kd.
Target: JAK1 JH1 kinase domain (Homo sapiens, UniProt P23458)
Sequence (P23458 875-1153 limits assumed): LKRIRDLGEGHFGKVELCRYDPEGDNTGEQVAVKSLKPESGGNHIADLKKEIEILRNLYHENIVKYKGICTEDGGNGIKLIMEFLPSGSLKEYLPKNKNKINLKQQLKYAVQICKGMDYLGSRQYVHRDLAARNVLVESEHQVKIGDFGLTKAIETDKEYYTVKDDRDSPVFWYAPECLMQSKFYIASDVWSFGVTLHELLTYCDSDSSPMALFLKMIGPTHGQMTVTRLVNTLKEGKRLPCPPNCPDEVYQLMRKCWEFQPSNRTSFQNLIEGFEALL
Assay: KdELECT competition binding assay, JAK1 JH1
Settings: read-out: JAK Binding Selectivity (Kd) Catalytical Domain (JH1) JAK1
Protocol: The KdELECT competition assays were performed to test the binding affinity of compounds to the JH1 kinase region or JH2 pseudokinase region in TYK2 or JAK by ligand competition with JH1 or JH2 protein segments. […] Dissociation constants (Kds) for test compound-kinase interactions are calculated by measuring the amount of kinase captured on the solid support as a function of the test compound concentration. […] The kinase concentration in the eluant was measured by qPCR. […]

>>> assay_value("[2H]C([2H])([2H])NC(=O)c1nnc(NC(=O)N2CCC2)cc1Nc1cccc(-c2ncn(C)n2)c1OC [SHR9332]")
"> 20 µM"
>>> assay_value("CNC(=O)c1nnc(NC(=O)N2CCC2)cc1Nc1cccc(-c2ncn(C)n2)c1OC [SHR8751]")
"> 20 µM"

Here is the next item to consider.
Look up and state reported Kd for CNC(=O)c1nnc(NC(=O)C2CC2)c2[nH]c(-c3ccc(N)cc3OC)cc12 [SHR2396]
> 20 µM

====

test: LM T1/2, H; assay type: in vitro ADME; conditions: human, liver microsomes
Measured attribute: half-life (min)
Just the number in min, nothing appended.

>>> assay_value("CNC(=O)c1nnc(NC(=O)C2CC2)c2[nH]c(-c3ccccc3OC)cc12")
34

Here is the next item to consider.
Look up and state reported half-life for [2H]C([2H])([2H])NC(=O)c1nnc(NC(=O)N2CCC2)cc1Nc1cccc(-c2ncn(C)n2)c1OC
47.5

====

test: Solubility (PBS/Fas/Fes); format: physicochemical; conditions: FaSSIF; read-out: Solubility, Fas
Measured attribute: solubility (µM)
Just the number in µM, nothing appended.

Here is how some molecules turned out for solubility.
>>> assay_value("CNC(=O)c1nnc(NC(=O)N2CCC2)cc1Nc1cccc(-c2ncn(C)n2)c1OC")
60.7
>>> assay_value("CNC(=O)c1nnc(NC(=O)C2CC2)c2[nH]c(-c3ccccc3OC)cc12")
1.7
>>> assay_value("[2H]C([2H])([2H])NC(=O)c1nnc(NC(=O)N2CCC2)cc1Nc1cccc(-c2ncn(C)n2)c1OC")
71.4

Here is the next item to consider.
Look up and state reported solubility for CNC(=O)c1nnc(NC(=O)C2CC2)c2[nH]c(-c3ccc(N)cc3OC)cc12
8.6

====

Heads up, these compounds all have IC50 values measured for CYP450 2C9 (Homo sapiens).

>>> assay_value("[2H]C([2H])([2H])NC(=O)c1nnc(NC(=O)N2CCC2)cc1Nc1cccc(-c2ncn(C)n2)c1OC [SHR9332]")
"> 30 µM"

Look up and state reported IC50 for CNC(=O)c1nnc(NC(=O)N2CCC2)cc1Nc1cccc(-c2ncn(C)n2)c1OC [SHR8751]
> 30 µM

Look up and state reported IC50 for CNC(=O)c1nnc(NC(=O)C2CC2)c2[nH]c(-c3ccc(N)cc3OC)cc12 [SHR2396]
> 30 µM

Look up and state reported IC50 for CNC(=O)c1nnc(NC(=O)C2CC2)c2[nH]c(-c3ccccc3OC)cc12 [SHR2178]
30 µM
